# tgt: DUSP4 (Homo sapiens)
# Sequence (Q13115 whole entry, species assumed): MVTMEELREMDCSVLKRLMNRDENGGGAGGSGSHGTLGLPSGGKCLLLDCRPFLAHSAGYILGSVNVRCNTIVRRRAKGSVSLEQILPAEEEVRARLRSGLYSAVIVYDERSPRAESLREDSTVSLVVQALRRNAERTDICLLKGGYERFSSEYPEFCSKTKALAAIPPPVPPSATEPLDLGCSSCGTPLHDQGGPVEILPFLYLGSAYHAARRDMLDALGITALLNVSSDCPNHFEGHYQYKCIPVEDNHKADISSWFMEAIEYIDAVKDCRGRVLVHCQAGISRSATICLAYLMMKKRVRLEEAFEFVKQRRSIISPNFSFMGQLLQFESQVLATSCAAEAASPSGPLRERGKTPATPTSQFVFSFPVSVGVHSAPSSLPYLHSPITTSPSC
endpoint.label: pKi
pKi here is simply -log10 of the concentration when that concentration is written in mol/L.

| cpd.smiles | pKi |
| --- | --- |
| Cc1ccc(S(=O)(=O)/C=C/C#N)cc1 | 3.85 |

# next molecule below
Measured pKi for this entry "CC(C)(C)c1ccc(S(=O)(=O)/C=C/C#N)cc1" on DUSP4 (Homo sapiens): 3.80

====

# tgt: TC-PTP (Homo sapiens, UniProt P17706)
# Sequence (P17706 1-415): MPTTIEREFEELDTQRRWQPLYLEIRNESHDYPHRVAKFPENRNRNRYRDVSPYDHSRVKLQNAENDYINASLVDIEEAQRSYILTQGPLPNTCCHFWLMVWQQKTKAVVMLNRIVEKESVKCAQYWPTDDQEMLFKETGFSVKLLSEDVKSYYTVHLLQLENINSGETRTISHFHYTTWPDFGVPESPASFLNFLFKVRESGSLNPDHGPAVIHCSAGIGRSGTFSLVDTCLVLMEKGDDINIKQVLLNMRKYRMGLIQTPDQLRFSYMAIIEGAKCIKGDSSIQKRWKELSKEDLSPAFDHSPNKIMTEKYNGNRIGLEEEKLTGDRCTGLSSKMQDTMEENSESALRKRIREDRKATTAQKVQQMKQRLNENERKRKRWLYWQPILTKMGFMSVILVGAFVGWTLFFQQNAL
Overview of reported pKi across a group of compounds:
pKi here is simply -log10 of the concentration when that concentration is written in mol/L.

| cpd.smiles | pKi |
| --- | --- |
| Cc1ccc(S(=O)(=O)/C=C/C#N)cc1 | 5.82 |

# next compound below
compound "CC(C)(C)c1ccc(S(=O)(=O)/C=C/C#N)cc1" , pKi observed: 4.41
